- subject_of_test: T1, CXCR4 (CXCR4-expressing HPB-ALL cells) (Homo sapiens, UniProt P61073)
- T1 construct: endogenous in cells; host or cells: HPB-ALL (human T cell leukemia)
- protocol: Flow cytometry binding of humanized 3G10 Fabs to HPB-ALL cells (Example 2)
- assay_setup: Fab 2.5 μg/ml
measured_metric: MFI 2.5 μg/ml

molecule | measured_metric | meas_value
h3G10.A57 VH/h3G10.B12 VL: Fab; VH SEQ ID NO:23, VL B12 (probably B12A, SEQ ID NO:61) (antibody, V domains shown, Fab) VH: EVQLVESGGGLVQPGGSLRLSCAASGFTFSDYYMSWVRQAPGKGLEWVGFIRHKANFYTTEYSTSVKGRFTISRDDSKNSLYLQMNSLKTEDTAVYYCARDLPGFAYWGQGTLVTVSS VL: DIVMTQSPDSLAVSLGERATINCKSSQSLFNSRTRKNYLLWYQQKPGQPPKLLIYWASARESGVPDRFSGSGSGTDFTLTISSLQAEDVAVYYCKQSFRLRTFGGGTKVEIK | MFI 2.5 μg/ml | 6830
